Where do these numbers come from? They come from the supplement of paper PMC13380429.

Item-by-item account of cell viability
# System: HepG2
# assay-procedure: cell viability relative to DMSO; higher = less toxic
# condition-label: 72 h; 100 nM
measure: cell viability (%)

{"molecule": "CC(C)N[C@H]1CCn2c(=O)[nH]c3cccc(c32)[C@@H]1O", "subject-of-test": "HepG2", "measured-number": 104}
{"molecule": "Cc1cc(C(=O)Nc2cc(Oc3ccc4nc(NC(=O)C5CC5)cn4n3)ccc2C)n(C)n1", "subject-of-test": "HepG2", "measured-number": 93.1}
{"molecule": "c1ccc(-c2ccc(CNc3nc(-c4ccccn4)nnc3-c3ccccc3)cc2)cc1", "subject-of-test": "HepG2", "measured-number": 103}
{"molecule": "NCc1ccc(S(N)(=O)=O)cc1 [mafenide]", "subject-of-test": "HepG2", "measured-number": 99.9}
{"molecule": "C[C@H]1CN(C[C@H](Cc2ccccc2)C(=O)NCC(=O)O)CC[C@@]1(C)c1cccc(O)c1", "subject-of-test": "HepG2", "measured-number": 110}
{"molecule": "Nc1ccc(S(=O)(=O)Nc2ccc(Cl)nn2)cc1", "subject-of-test": "HepG2", "measured-number": 105}
{"molecule": "CCS(=O)(=O)c1ccc2oc(-c3ccc4ccccc4c3)nc2c1", "subject-of-test": "HepG2", "measured-number": 102}
{"molecule": "[O-][n+]1ccccc1[S-].[O-][n+]1ccccc1[S-].[Zn+2]", "subject-of-test": "HepG2", "measured-number": 102}
{"molecule": "COc1ccc(CCc2nc3cc(-c4c(C)noc4C)ccc3n2C[C@H](C)N2CCOCC2)cc1Cl", "subject-of-test": "HepG2", "measured-number": 93.6}

---

# Test system: Vero E6
# assay-procedure: cell viability relative to DMSO; higher = less toxic
# condition-label: 72 h; 10000 nM

{"compound": "N#Cc1ccc(C(c2ccc(C#N)cc2)n2cncn2)cc1 [letrozole]", "cell viability (%)": 105}
{"compound": "CC(C)(C)C(=O)/C(=N/c1ccc(Cl)cc1)NNc1ccc(Cl)cc1", "cell viability (%)": 107}
{"compound": "C[C@]12C=CC(=O)C=C1CC[C@@H]1[C@@H]2[C@@H](O)C[C@@]2(C)[C@H]1CC[C@]2(O)C(=O)COP(=O)(O)O [prednisolone-sodium-phosphate]", "cell viability (%)": 89.6}
{"compound": "Cn1cc(C2=C(c3ccc(Cl)cc3Cl)C(=O)NC2=O)c2ccccc21", "cell viability (%)": 99.8}
{"compound": "Cc1c(N)nc([C@H](CC(N)=O)NC[C@H](N)C(N)=O)nc1C(=O)N[C@H](C(=O)N[C@H](C)[C@@H](O)[C@H](C)C(=O)N[C@H](C(=O)NCCc1nc(-c2nc(C(=O)NCCC[S+](C)C)cs2)cs1)[C@@H](C)O)[C@@H](OC1OC(CO)C(O)C(O)C1OC1OC(CO)C(O)C(OC(N)=O)C1O)c1cnc[nH]1 (stereo partly specified) [bleomycin]", "cell viability (%)": 60}
{"compound": "Cc1c(C(=O)N2CCOc3ccc(-c4ccc(N)nc4)cc3C2)ccc(S(C)(=O)=O)c1F [XL388]", "cell viability (%)": 66.7}
{"compound": "Cc1cccc(Nc2ccccc2C(=O)O)c1C [mefenamic-acid]", "cell viability (%)": 92}
{"compound": "O=C(O)CCc1cc(I)c(Oc2ccc(O)cc2)c(I)c1 [diiodothyropropionic-acid]", "cell viability (%)": 92.1}
{"compound": "CN1CCN(c2cc3c(cc2F)c(=O)c(C(=O)O)cn3-c2ccc(F)cc2)CC1 [difloxacin]", "cell viability (%)": 99.1}
{"compound": "CSCC1CN(/N=C/c2ccc([N+](=O)[O-])o2)C(=O)O1 (stereo unspecified) [inimur]", "cell viability (%)": 95}
{"compound": "Nc1nc(Nc2ccccc2)nc2c1ncn2[C@@H]1O[C@H](CO)[C@@H](O)[C@H]1O [CV-1808]", "cell viability (%)": 97.2}
{"compound": "O=C1OCCN1/N=C/c1ccc([N+](=O)[O-])o1 [furazolidone]", "cell viability (%)": 97.4}
{"compound": "O=C1C=CC(=O)C2=C1C1c3ccccc3C2c2ccccc21 [INCA-6]", "cell viability (%)": 105}
{"compound": "O=C(O)C(O)Cc1ccc(O)c(O)c1 (stereo unspecified) [sodium-danshensu]", "cell viability (%)": 97.6}
{"compound": "Cc1cccc(Nc2ccncc2S(=O)(=O)NC(=O)NC(C)C)c1 [torasemide]", "cell viability (%)": 103}
{"compound": "CN(C)N(C)C(=O)[C@@]1(Cc2ccccc2)CCCN(C(=O)[C@@H](Cc2c[nH]c3ccccc23)NC(=O)C(C)(C)N)C1 [anamorelin]", "cell viability (%)": 95.4}
